test: yeast display, Sf9 membrane polyspecificity reagent, FACS + sequencing; frameworks hold sequencing errors
readout label: polyreactivity (PSR sort gate)

Worked set:
residue codes | measured value
QVQLVESGGGLVQAGGSLRLSCAASGNIVGSNAMGWYRQAPGKERELVAAISKSGGRTYYADSVKGRFTISRDNAKNTVYLQMNSLKPEDTAVYYCAAYDGYYEFDYWGQGTQVTVSS | low polyreactivity
QVQLVESGGGLVQAGGSLRLSCAASGSIFSKNAMGWYRQAPGKERELLAAITLNGGSTYYADSVKGRFTNSRDNAKNTVYLQMNSLKPEDTSVFYFAKSDRQWWGYYYQFDYLGQGTQVTVSS | low polyreactivity
QVQLVESGGGLVQAGGSLRLSCAASGRIFFYYVMGWYRQAPGKERELVAAITRSGGSTYYADSVKGRFTISRDNAKNTVYLQMNSLKPEDTAVYYCSVGDGFEYDWGQGTQVTVSS | low polyreactivity
QVQLVESGGGLVQAGGSHRLSCAASGSIFRSYAMGWYRQAPGKERELVASISRRGGSTYYADSVKGRFTISRDNAKNTVYLQMNSLIPEDTAVYYCAAVRYNSRVSTTPSEMYYWGQGTQVTVSS | low polyreactivity

# polyreactivity (PSR sort gate) (sequence: `QVQLVESGGGLVQAGGSLRLSCAASGYIFGYYVMGWYRQAPGKERELVAAITGRGGSTYYADSVKGRFTISRDNAKNTVSLQMNSLKPEDTAVYYCAADATTYPYDPWHLYEIWEYYYWGQGTQVTVSS` ) is low polyreactivity

meta.source: the nanobody polyreactivity screen of Harvey et al. (2022)
